All figures here come from patent US20250376519A1.

Target: T1, human DLL3 (ACRO, DLL3-H52H4) (human, UniProt Q9NYJ7 27-492)
T1 construct: Bought
T1 sequence: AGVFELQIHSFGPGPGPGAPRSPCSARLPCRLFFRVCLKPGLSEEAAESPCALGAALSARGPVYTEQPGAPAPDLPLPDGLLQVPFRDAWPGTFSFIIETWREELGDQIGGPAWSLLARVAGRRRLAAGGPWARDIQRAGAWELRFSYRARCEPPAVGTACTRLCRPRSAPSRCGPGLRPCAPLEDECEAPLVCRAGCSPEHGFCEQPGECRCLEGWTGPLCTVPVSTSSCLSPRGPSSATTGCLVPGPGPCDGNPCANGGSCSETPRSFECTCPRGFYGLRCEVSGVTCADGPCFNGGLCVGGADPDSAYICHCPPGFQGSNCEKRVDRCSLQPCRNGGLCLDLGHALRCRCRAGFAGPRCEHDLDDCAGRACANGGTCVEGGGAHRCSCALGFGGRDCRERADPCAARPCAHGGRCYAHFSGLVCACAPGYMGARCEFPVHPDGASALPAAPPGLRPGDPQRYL
Assay: SPR Biacore 8K, Ab captured on Protein A
readout.kind: Kd (nM)
// note: answer is a bare numeric in nM

I would be grateful if you could share the reported Kd for hu30L3H3 (antibody, human IgG1, kappa, V domains shown) VH: EVRLVQSGAEVKKPGASVKVSCKASGYTFTDYYMNWVRQAPGQSLEWMGIINPYQGDTSYNQKFRGRVTLTVDKSASTAYMELSSLRSEDTAVYYCARYHYGPHLEGYFDVWGQGTTVTVSS VL: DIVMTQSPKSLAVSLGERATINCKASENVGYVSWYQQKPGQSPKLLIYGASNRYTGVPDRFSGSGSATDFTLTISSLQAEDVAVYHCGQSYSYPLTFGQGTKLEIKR . 1.25

Next:
I would be grateful if you could share the reported Kd for hu30L2H5 (antibody, human IgG1, kappa, V domains shown) VH: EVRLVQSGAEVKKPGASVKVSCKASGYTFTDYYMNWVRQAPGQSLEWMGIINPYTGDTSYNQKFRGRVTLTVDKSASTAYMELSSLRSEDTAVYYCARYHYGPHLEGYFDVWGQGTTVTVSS VL: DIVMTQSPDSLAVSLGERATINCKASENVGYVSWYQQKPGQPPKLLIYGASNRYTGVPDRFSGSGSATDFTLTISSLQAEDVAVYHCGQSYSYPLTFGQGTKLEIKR . 0.969
